- Tested on: Acinetobacter baumannii strains
- ASSAY PROCEDURE: Antibiotic susceptibility test (CLSI disk diffusion test method, read per CLSI 2016); note: key: ‘S’ means susceptible; ‘I’ means intermediate; ‘R’ means resistant
- Assay type: cell-based
- RUN PARAMETERS: host strain YMC15/09/R1869
ASSAY METRIC: susceptibility category (S/I/R)

Some solved entries appear below for comparison.
| SMI | SYSTEM UNDER TEST | susceptibility category (S/I/R) |
| --- | --- | --- |
| CCN1CCN(C(=O)N[C@@H](C(=O)N[C@@H]2C(=O)N3[C@@H]2SC(C)(C)[C@@H]3C(=O)O)c2ccccc2)C(=O)C1=O | Acinetobacter baumannii strains | R |
| CN(C)c1ccc(O)c2c1C[C@H]1C[C@H]3[C@H](N(C)C)C(O)=C(C(N)=O)C(=O)[C@@]3(O)C(O)=C1C2=O | Acinetobacter baumannii strains | S |
| C[C@H]1COc2c(N3CCN(C)CC3)c(F)cc3c(=O)c(C(=O)O)cn1c23 | Acinetobacter baumannii strains | R |
| CN(C)c1cc(NC(=O)CNC(C)(C)C)c(O)c2c1C[C@H]1C[C@H]3[C@H](N(C)C)C(O)=C(C(N)=O)C(=O)[C@@]3(O)C(O)=C1C2=O | Acinetobacter baumannii strains | I |
| C[C@@H](O)[C@H]1C(=O)N2C(C(=O)O)=C(SCCN=CN)C[C@H]12 | Acinetobacter baumannii strains | R |

# input # query: susceptibility category (S/I/R) | item "CO/N=C(\C(=O)N[C@@H]1C(=O)N2C(C(=O)O)=C(COC(C)=O)CS[C@H]12)c1csc(N)n1" | system: Acinetobacter baumannii strains
# output R

# input Item: "NCC[C@H](O)C(=O)N[C@@H]1C[C@H](N)[C@@H](O[C@H]2O[C@H](CN)[C@@H](O)[C@H](O)[C@H]2O)[C@H](O)[C@H]1O[C@H]1O[C@H](CO)[C@@H](O)[C@H](N)[C@H]1O"
# output R

# input Please do the same for "C[C@@H](O)[C@H]1C(=O)N2C(C(=O)O)=C(S[C@@H]3CN[C@H](C(=O)N(C)C)C3)[C@H](C)[C@H]12" as well.
# output R

# input Queued: "CC(C)(O/N=C(\C(=O)N[C@@H]1C(=O)N2C(C(=O)[O-])=C(C[n+]3ccccc3)CS[C@H]12)c1csc(N)n1)C(=O)O"
# output R

----------
- System: Acinetobacter baumannii strains
- ASSAY PROCEDURE: Antibiotic susceptibility test (CLSI disk diffusion test method, read per CLSI 2016); note: key: ‘S’ means susceptible; ‘I’ means intermediate; ‘R’ means resistant
- Format: cell-based
- RUN PARAMETERS: host strain YMC14/01/P224
ASSAY METRIC: antibiotic susceptibility class

Some compounds with known antibiotic susceptibility class results, for comparison:
| SMI | antibiotic susceptibility class |
| --- | --- |
| CCN1CCN(C(=O)N[C@@H](C(=O)N[C@@H]2C(=O)N3[C@@H]2SC(C)(C)[C@@H]3C(=O)O)c2ccccc2)C(=O)C1=O | R |
| NCC[C@H](O)C(=O)N[C@@H]1C[C@H](N)[C@@H](O[C@H]2O[C@H](CN)[C@@H](O)[C@H](O)[C@H]2O)[C@H](O)[C@H]1O[C@H]1O[C@H](CO)[C@@H](O)[C@H](N)[C@H]1O | R |
| C[C@@H](O)[C@H]1C(=O)N2C(C(=O)O)=C(S[C@@H]3CN[C@H](C(=O)N(C)C)C3)[C@H](C)[C@H]12 | R |
| CO/N=C(\C(=O)N[C@@H]1C(=O)N2C(C(=O)O)=C(COC(C)=O)CS[C@H]12)c1csc(N)n1 | R |
| C[C@@H](O)[C@H]1C(=O)N2C(C(=O)O)=C(SCCN=CN)C[C@H]12 | R |

Field: next compound
# input Sample "CN(C)c1cc(NC(=O)CNC(C)(C)C)c(O)c2c1C[C@H]1C[C@H]3[C@H](N(C)C)C(O)=C(C(N)=O)C(=O)[C@@]3(O)C(O)=C1C2=O" — what was its antibiotic susceptibility class?
# output I
